Data export: IC50 values recorded with UniProt:P36544.
Sequence (P36544 23-502): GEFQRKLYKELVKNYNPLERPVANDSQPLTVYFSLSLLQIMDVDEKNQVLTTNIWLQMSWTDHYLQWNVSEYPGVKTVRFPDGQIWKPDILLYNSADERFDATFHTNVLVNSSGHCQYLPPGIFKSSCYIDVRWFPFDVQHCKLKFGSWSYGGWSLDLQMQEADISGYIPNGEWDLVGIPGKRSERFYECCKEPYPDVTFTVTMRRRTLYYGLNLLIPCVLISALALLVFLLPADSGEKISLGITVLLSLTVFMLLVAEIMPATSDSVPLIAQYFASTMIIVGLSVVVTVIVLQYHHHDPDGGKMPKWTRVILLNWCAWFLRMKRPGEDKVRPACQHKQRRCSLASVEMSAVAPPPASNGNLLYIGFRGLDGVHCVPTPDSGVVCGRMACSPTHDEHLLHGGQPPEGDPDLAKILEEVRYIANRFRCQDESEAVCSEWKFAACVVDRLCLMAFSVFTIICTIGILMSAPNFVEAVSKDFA
quantity.name: IC50 (µM)

[[record]]
cpd_smiles = "CC[N+](C)(C)C"
measure_unit = "µM"
test_value = 15.6

[[record]]
cpd_smiles = "C[N+](C)(C)C"
measure_unit = "µM"
test_value = 11.4

